Biological target: T1, soluble monomeric human MUC16, truncated format encompassing the last five SEA domains of Mucin-16 (human)
T1 construct: also called hMUC16.mmh; MUC16 "nub"
T1 chain: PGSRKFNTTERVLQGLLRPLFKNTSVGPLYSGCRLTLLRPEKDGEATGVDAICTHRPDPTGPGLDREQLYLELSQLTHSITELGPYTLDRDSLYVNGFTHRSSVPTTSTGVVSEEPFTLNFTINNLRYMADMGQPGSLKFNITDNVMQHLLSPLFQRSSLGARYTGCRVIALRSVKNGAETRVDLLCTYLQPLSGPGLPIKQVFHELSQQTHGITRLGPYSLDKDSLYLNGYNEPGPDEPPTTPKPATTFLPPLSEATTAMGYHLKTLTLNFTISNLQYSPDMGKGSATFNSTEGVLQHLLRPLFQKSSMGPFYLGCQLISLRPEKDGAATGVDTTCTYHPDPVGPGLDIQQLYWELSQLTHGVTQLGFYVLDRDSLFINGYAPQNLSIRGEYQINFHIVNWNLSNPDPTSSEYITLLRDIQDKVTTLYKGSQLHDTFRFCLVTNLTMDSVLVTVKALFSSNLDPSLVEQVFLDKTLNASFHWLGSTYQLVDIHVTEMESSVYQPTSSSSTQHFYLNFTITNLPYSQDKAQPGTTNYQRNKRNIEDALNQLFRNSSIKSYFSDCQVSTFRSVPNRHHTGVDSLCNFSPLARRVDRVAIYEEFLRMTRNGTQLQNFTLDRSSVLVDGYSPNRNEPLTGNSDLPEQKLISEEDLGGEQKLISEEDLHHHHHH
Assay: SPR Biacore, antibody captured, soluble monomeric hMUC16.mmh injected, 25C
Reported property: Kd
Write the numeric value and append its unit.

Look at this binder and give its reported Kd. H1H8770P (antibody, human IgG1, V domains shown, Human IgG1 (H1H)) VH: QVQLVESGGGVVQPGRSLRLSCAASGFTFSDHGMHWVRQAPGKGLEWVAVISYHGSNKHYADSVKGRFTISRDNSKNALYLQMNSLRPEDTAMYYCAKDGYDFWNGYSLFDYWGQGTLVTVSS VL: DIQMTQSPSSLSASVGDRVTITCRASQSISNYLNWYQQKPGKAPKLLIYTASNLLSGVPSRFSGSGSGTDFTLTISSLQPEDFATYYCQQSYSTPPITFGQGTKLEIK
1.25 nM
